Target or system: Sodium-dependent dopamine transporter (Homo sapiens, UniProt Q01959)
Sequence (Q01959 whole entry): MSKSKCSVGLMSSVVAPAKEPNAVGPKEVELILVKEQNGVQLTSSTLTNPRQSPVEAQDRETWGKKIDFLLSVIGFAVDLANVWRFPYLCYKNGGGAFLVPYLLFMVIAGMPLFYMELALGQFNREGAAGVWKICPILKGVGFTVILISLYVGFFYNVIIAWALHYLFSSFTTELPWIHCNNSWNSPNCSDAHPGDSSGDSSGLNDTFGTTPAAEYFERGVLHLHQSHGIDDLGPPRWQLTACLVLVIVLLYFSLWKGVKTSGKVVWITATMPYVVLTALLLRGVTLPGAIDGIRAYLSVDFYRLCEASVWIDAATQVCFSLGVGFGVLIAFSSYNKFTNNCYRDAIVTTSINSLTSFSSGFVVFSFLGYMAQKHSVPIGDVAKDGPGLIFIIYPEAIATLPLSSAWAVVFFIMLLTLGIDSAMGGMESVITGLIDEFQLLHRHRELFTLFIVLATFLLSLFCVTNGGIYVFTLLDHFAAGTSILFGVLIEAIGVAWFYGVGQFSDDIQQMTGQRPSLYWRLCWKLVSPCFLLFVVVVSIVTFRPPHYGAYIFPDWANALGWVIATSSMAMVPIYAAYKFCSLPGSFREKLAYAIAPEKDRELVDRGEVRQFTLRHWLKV
Test protocol: Displacement of [125I]RTI55 from human DAT transfected in COS1 cells
Observed property: Ki

// known answers, use as guide
Input smiles	Ki
O=C(C1=C(c2ccc(Cl)c(Cl)c2)CCC1)N1CCOCC1	11 µM
O=C(OCc1ccco1)C1=C(c2ccc(Cl)c(Cl)c2)CCC1	1.5 µM
O=C(OCC(F)(F)F)C1=C(c2ccc(Cl)c(Cl)c2)CCC1	3.4 µM

Next, consider the following molecule.
Task: Ki for O=C(OCc1cccs1)C1=C(c2ccc(Cl)c(Cl)c2)CCC1 ?
Result: 0.4 µM
